# PROCEDURE_DETAILS: NCI Yeast Anticancer Drug Screen. Data for the mec2-1 strain (AID 157)
# CONDITION_SET: S. cerevisiae mec2-1 strain, at 50.0 µM, hits give high values
The panel holds about 79,000 compounds, 15% with a hit somewhere; the sample as a whole holds those more often. The source made the active and inactive calls. Cut-off read from the data, not from the text of the source: active = growth inhibition above about 70%; inactive = the rest.
RESULT_TYPE: growth inhibition

input: Returns the measured growth inhibition for the input compound. Input: Cc1ccc2nc3c(C)c(Cl)c(=O)cc-3sc2c1
output: 19.4% (inactive)

input: Returns the measured growth inhibition for the input compound. Input: O=C(O)CCC1CC1C(=O)c1ccccc1 (stereo unspecified)
output: 5.55% (inactive)

input: Returns the measured growth inhibition for the input compound. Input: CC1CNC(C)(C)O1 (stereo unspecified)
output: 10.9% (inactive)

input: Returns the measured growth inhibition for the input compound. Input: Cc1[nH]c2ccccc2c1C(=O)Cc1ccc(Cl)cc1Cl
output: 31.8% (inactive)

input: Returns the measured growth inhibition for the input compound. Input: CCCc1cc(OC(=O)c2c(O)cc(OC)cc2CCC)cc(O)c1C(=O)O
output: 44.1% (inactive)

input: Returns the measured growth inhibition for the input compound. Input: O=C1c2ccccc2C(C2N=Nc3ccccc32)c2ccccc21 (stereo unspecified)
output: 5.15% (inactive)

input: Returns the measured growth inhibition for the input compound. Input: Cc1cc(=O)c2ccccc2o1
output: -7.75% (inactive)

input: Returns the measured growth inhibition for the input compound. Input: C/C(=C/c1c(C)[nH]c(=O)[nH]c1=O)C(=O)O
output: 13.6% (inactive)

input: Returns the measured growth inhibition for the input compound. Input: CCC1C(C#N)=C(O)NC(O)=C1C#N
output: 6.1% (inactive)

input: Returns the measured growth inhibition for the input compound. Input: C=Cc1ccc(C)[n+](C[Si](C)(C)O[Si](C)(C)C)c1
output: -39% (inactive)

input: Returns the measured growth inhibition for the input compound. Input: O=C1NC(CCl)(CCl)CO1
output: 8.85% (inactive)

input: Returns the measured growth inhibition for the input compound. Input: N#CC(OC(=O)c1ccccc1)C(OC(=O)c1ccccc1)C(COC(=O)c1ccccc1)OC(=O)c1ccccc1 (stereo unspecified)
output: 6.3% (inactive)

input: Returns the measured growth inhibition for the input compound. Input: O=[N+]([O-])c1cc2c3c(cccc3c1O)CC2
output: -8.9% (inactive)

input: Returns the measured growth inhibition for the input compound. Input: CC1CC(=O)Oc2ccccc21 (stereo unspecified)
output: 5.7% (inactive)

input: Returns the measured growth inhibition for the input compound. Input: COc1ccc(C2=Nc3ccccc3NC(=O)C2)cc1
output: -20.9% (inactive)

input: Returns the measured growth inhibition for the input compound. Input: CC(=O)Oc1cccc2ccccc12
output: -25.5% (inactive)

input: Returns the measured growth inhibition for the input compound. Input: CC(=O)C(=CC=C(c1ccc(N(C)C)cc1)c1ccc(N(C)C)cc1)C(C)=O
output: -8.55% (inactive)

input: Returns the measured growth inhibition for the input compound. Input: CC(C)C1N=C(N)N=C(N)N1c1ccc(Cl)c(Cl)c1 (stereo unspecified)
output: 10.1% (inactive)

input: Returns the measured growth inhibition for the input compound. Input: CCOP(=O)(OCC)c1c(C(=O)OC)cc(=O)[nH]c1-c1ccc(C)cc1
output: 23.4% (inactive)

input: Returns the measured growth inhibition for the input compound. Input: CCC(CC)C(=O)NC
output: -5.2% (inactive)

input: Returns the measured growth inhibition for the input compound. Input: COc1cc(/C=C2/C(=O)N(c3ccccc3)N=C2C)cc(OC)c1OC
output: -3.4% (inactive)
